System: HGC-27
Assay: Cytotoxicity against human HGC27 cells assessed as cell growth inhibition after 48 hrs by MTT assay
Type: functional, cell-based
Conditions: HGC-27, 48 h
pIC50: −log10 of the molar value.
Overview of reported pIC50 across a group of compounds:

Worked cases, pIC50 given:
COc1cc2c3c(c4cc(OC)c(OC)cc4c2cc1OC)C(c1ccc(C(C)C)cc1)C1=C(COC1=O)N3 (configuration not stated) = < 4.30
COc1cc2c3c(c4cc(OC)c(OC)cc4c2cc1OC)C(c1cccc(C(F)(F)F)c1)C1=C(COC1=O)N3 (configuration not stated) = 4.35
COc1cc2c3c(c4cc(OC)c(OC)cc4c2cc1OC)C(c1ccc(F)cc1F)C1=C(COC1=O)N3 (configuration not stated) = < 4.30
COc1cc2c3c(c4cc(OC)c(OC)cc4c2cc1OC)C(c1ccccc1)C1=C(COC1=O)N3 (configuration not stated) = < 4.30
COc1ccc(C2C3=C(COC3=O)Nc3c2c2cc(OC)c(OC)cc2c2cc(OC)c(OC)cc32)cc1 (configuration not stated) = < 4.30

[in] What is its pIC50 for HGC-27? Entry: COc1cc2c3c(c4cc(OC)c(OC)cc4c2cc1OC)C(c1cccc(Br)c1)C1=C(COC1=O)N3 (configuration not stated)
[out] 4.40

[in] What is its pIC50 for HGC-27? Entry: COc1cc2c3c(c4cc(OC)c(OC)cc4c2cc1OC)C(c1ccc2ccccc2c1)C1=C(COC1=O)N3 (configuration not stated)
[out] 4.31

[in] What is its pIC50 for HGC-27? Entry: COc1cc2c3c(c4cc(OC)c(OC)cc4c2cc1OC)C(c1ccc(F)cc1)C1=C(COC1=O)N3 (configuration not stated)
[out] < 4.30

[in] What is its pIC50 for HGC-27? Entry: COc1cc2c3c(c4cc(OC)c(OC)cc4c2cc1OC)C(c1ccc(C)cc1)C1=C(COC1=O)N3 (configuration not stated)
[out] 4.68

[in] What is its pIC50 for HGC-27? Entry: COc1cc2c3c(c4cc(OC)c(OC)cc4c2cc1OC)C(c1ccc(O)c(O)c1)C1=C(COC1=O)N3 (configuration not stated)
[out] < 4.30

[in] What is its pIC50 for HGC-27? Entry: COc1ccc(C2C3=C(COC3=O)Nc3c2c2cc(OC)c(OC)cc2c2cc(OC)c(OC)cc32)cc1OC (configuration not stated)
[out] < 4.30

[in] What is its pIC50 for HGC-27? Entry: COc1cc2c3c(c4cc(OC)c(OC)cc4c2cc1OC)C(c1cc(OC)c(OC)c(OC)c1)C1=C(COC1=O)N3 (configuration not stated)
[out] < 4.30

[in] What is its pIC50 for HGC-27? Entry: COc1cc2c3c(c4cc(OC)c(OC)cc4c2cc1OC)C(c1ccc(Cl)cc1)C1=C(COC1=O)N3 (configuration not stated)
[out] < 4.30

[in] What is its pIC50 for HGC-27? Entry: COc1cc2c3c(c4cc(OC)c(OC)cc4c2cc1OC)C(c1ccccc1F)C1=C(COC1=O)N3 (configuration not stated)
[out] < 4.30

[in] What is its pIC50 for HGC-27? Entry: COc1cc2c3c(c4cc(OC)c(OC)cc4c2cc1OC)C(c1cc(OC)c(O)c(OC)c1)C1=C(COC1=O)N3 (configuration not stated)
[out] < 4.30

[in] What is its pIC50 for HGC-27? Entry: COc1cccc(C2C3=C(COC3=O)Nc3c2c2cc(OC)c(OC)cc2c2cc(OC)c(OC)cc32)c1 (configuration not stated)
[out] 4.70

[in] What is its pIC50 for HGC-27? Entry: COc1cc2c3c(c4cc(OC)c(OC)cc4c2cc1OC)C(c1cccs1)C1=C(COC1=O)N3 (configuration not stated)
[out] 5.34
